The measurements presented in this section are drawn from patent US20240132484A1.

# Tested on: cells (nuclei count)
# Condition Description: 25 μM; toxicity data; 100=DMSO control
Listed next: entries and their corresponding Relative cell count to DMSO controls, Average 25 μM.
API doc: respond with a numeric literal and nothing else, no unit.

Answered cases to consult:
# Molecule, Target Entity, Observed Result
rows = [
    ("COc1ccc(CNCCc2ccccc2F)c(OCC(O)CN2CCN(C)CC2)c1 (racemic) [UMB18G]", "cells (nuclei count)", 116.94),
    ("CC1=C(C(=O)NCc2ccccc2)C(c2scc3c2OCCO3)NC(=O)N1 (stereo not shown) [SILCS66]", "cells (nuclei count)", 90.79),
    ("COc1ccc(C2NC(=O)NC(C)=C2C(=O)NC2CCCCCC2)cc1OC (stereo not shown) [SILCS59]", "cells (nuclei count)", 100.03),
]

Task: // lookup Relative cell count to DMSO controls, Average 25 μM for COc1ccc(-c2[nH]ncc2C(=O)NCC2CCCCC2)cc1OC [SILCS52]
Result: 94.91

###

# Test system: cells (nuclei count)
# Condition Description: average value over the 5 tested concentrations (1 to 50 uM)
Listed next: entries and their corresponding Relative cell count to DMSO controls, Average (for correlation analysis).
API doc: respond with a numeric literal and nothing else, no unit.

Answered cases to consult:
# Molecule, Target Entity, Observed Result
rows = [
    ("Cc1ccc(CN(CCN(C)C)Cc2ccc(CO)o2)s1", "cells (nuclei count)", 100.22),
    ("CCN(CC)CCN(Cc1cccs1)C(=O)c1cccs1", "cells (nuclei count)", 90.07),
    ("CCCCCCCCNC(=O)C1=C(C)NC(=O)NC1c1ccc(OC)c(OC)c1 (stereo not drawn)", "cells (nuclei count)", 96.78),
    ("COC(=O)c1csc(CN(CCN(C)C)Cc2ccsc2)c1", "cells (nuclei count)", 107.35),
    ("COc1ccc(-c2[nH]ncc2C(=O)NCC2CCC2)cc1OC", "cells (nuclei count)", 98.15),
    ("COC(=O)c1csc(CN(CCN(C)C)Cc2cccs2)c1", "cells (nuclei count)", 94.98),
    ("CCN(CC)CCN(Cc1ccccc1)Cc1ccccn1", "cells (nuclei count)", 87.61),
    ("CN(C)CCN(Cc1ccsc1)Cc1ccc(CO)o1", "cells (nuclei count)", 94.60),
    ("COC(=O)c1csc(CN(CCN(C)C)Cc2ccccc2)c1", "cells (nuclei count)", 102.48),
    ("COc1ccc(CNCCc2ccccc2F)c(OCC(O)CN2CCN(C)CC2)c1 (stereo not drawn) [SILCS45]", "cells (nuclei count)", 123.40),
]

Task: // lookup Relative cell count to DMSO controls, Average (for correlation analysis) for COc1ccc(CNCCc2ccccc2F)c(OCC(O)CN2CCN(C)CC2)c1 (racemic) [UMB18G]
Result: 119.98

Task: // lookup Relative cell count to DMSO controls, Average (for correlation analysis) for Cc1cc(CN(CCN(C)C)Cc2ccco2)sc1Br
Result: 99.73

Task: // lookup Relative cell count to DMSO controls, Average (for correlation analysis) for COc1ccc(CNCCc2ccccc2F)c(OCC(O)CN2CCOCC2)c1 (stereo not drawn)
Result: 110.59

###

# Test system: cells (nuclei count)
# Condition Description: 10 μM; toxicity data; 100=DMSO control
Mark No for Relative cell count to DMSO controls, Average 10 μM values under 100, and Yes for everything at or above.

Study these solved cases before continuing.
# Molecule, Category
records = [
    ("Cc1ccc(CN(CCN(C)C)Cc2ccc(C)s2)o1", "Yes"),
    ("CCN(CC)CCN(Cc1ccncc1)C(=O)c1cccs1", "Yes"),
    ("COC(=O)c1csc(CN(CCN(C)C)Cc2cccs2)c1", "No"),
]

Task: Check the entry CC1=C(C(=O)NCC2CCCCC2)C(c2cc(C)c(Br)s2)NC(=O)N1 (stereo not shown) : does Relative cell count to DMSO controls, Average 10 μM equal or exceed 100?
Result: Yes

Task: Check the entry CN(C)CCN(Cc1ccsc1)Cc1cccc(-c2ccsc2)c1 : does Relative cell count to DMSO controls, Average 10 μM equal or exceed 100?
Result: Yes

Task: Check the entry CCN(CC)CCN(Cc1cccs1)C(=O)c1cccs1 : does Relative cell count to DMSO controls, Average 10 μM equal or exceed 100?
Result: No

Task: Check the entry CC1=C(C(=O)NCC2CCCCC2)C(c2cccs2)NC(=O)N1 (stereo not shown) : does Relative cell count to DMSO controls, Average 10 μM equal or exceed 100?
Result: Yes

Task: Check the entry COc1ccc(C2NC(=O)NC(C)=C2C(=O)NCc2ccccc2)cc1OC (stereo not shown) : does Relative cell count to DMSO controls, Average 10 μM equal or exceed 100?
Result: Yes
